The origin of these recorded values is patent US20190016812A1.

target: human TNFSF9 (hTNFSF9), full length, overexpressed on HEK293T cells (human, UniProt P41273 1-254); assay: cell-based or functional assay
MEASUREMENT NAME: % live cells, Fab-saporin killing, 250 pM antibody (%)

{"BINDER": "SC113.44 (antibody, mouse IgG1, V domains shown, mouse IgG1) VH: QVQLQQSGPELVKPGTSVRISCKASGYTFTSYYIHWVKQRPGQGLEWIGWIYPRDVDTKYNETFKGKATLTADKSSSTAYIQLNSLTSEDSAVYFCARELTGTVFDYWGQGTTLTVSS VL: QIVLSQSPAILSASPGEKVTMTCRASSSVTYMHWYQRKPGSSPKPWIYATSTLASGVPARFSGTGSGTSYSLTISRVEAEDAATYFCQQWSSNPLTFGAGTKLELK", "UNITS OF MEASURE": "%", "RECORDED VALUE": 10.8}
